Answer each item with its documented composite z-score.
biological target: Neurogenic locus notch homolog protein 2 (Homo sapiens) (UniProt Q04721); assay: small molecules binding Notch2 protein – biochemical, small-molecule microarray, 635 nm fluorescence, stem cell growth factors, primary screen (AID 1073); conditions: higher = more signal
Sequence (Q04721 whole entry, looked up): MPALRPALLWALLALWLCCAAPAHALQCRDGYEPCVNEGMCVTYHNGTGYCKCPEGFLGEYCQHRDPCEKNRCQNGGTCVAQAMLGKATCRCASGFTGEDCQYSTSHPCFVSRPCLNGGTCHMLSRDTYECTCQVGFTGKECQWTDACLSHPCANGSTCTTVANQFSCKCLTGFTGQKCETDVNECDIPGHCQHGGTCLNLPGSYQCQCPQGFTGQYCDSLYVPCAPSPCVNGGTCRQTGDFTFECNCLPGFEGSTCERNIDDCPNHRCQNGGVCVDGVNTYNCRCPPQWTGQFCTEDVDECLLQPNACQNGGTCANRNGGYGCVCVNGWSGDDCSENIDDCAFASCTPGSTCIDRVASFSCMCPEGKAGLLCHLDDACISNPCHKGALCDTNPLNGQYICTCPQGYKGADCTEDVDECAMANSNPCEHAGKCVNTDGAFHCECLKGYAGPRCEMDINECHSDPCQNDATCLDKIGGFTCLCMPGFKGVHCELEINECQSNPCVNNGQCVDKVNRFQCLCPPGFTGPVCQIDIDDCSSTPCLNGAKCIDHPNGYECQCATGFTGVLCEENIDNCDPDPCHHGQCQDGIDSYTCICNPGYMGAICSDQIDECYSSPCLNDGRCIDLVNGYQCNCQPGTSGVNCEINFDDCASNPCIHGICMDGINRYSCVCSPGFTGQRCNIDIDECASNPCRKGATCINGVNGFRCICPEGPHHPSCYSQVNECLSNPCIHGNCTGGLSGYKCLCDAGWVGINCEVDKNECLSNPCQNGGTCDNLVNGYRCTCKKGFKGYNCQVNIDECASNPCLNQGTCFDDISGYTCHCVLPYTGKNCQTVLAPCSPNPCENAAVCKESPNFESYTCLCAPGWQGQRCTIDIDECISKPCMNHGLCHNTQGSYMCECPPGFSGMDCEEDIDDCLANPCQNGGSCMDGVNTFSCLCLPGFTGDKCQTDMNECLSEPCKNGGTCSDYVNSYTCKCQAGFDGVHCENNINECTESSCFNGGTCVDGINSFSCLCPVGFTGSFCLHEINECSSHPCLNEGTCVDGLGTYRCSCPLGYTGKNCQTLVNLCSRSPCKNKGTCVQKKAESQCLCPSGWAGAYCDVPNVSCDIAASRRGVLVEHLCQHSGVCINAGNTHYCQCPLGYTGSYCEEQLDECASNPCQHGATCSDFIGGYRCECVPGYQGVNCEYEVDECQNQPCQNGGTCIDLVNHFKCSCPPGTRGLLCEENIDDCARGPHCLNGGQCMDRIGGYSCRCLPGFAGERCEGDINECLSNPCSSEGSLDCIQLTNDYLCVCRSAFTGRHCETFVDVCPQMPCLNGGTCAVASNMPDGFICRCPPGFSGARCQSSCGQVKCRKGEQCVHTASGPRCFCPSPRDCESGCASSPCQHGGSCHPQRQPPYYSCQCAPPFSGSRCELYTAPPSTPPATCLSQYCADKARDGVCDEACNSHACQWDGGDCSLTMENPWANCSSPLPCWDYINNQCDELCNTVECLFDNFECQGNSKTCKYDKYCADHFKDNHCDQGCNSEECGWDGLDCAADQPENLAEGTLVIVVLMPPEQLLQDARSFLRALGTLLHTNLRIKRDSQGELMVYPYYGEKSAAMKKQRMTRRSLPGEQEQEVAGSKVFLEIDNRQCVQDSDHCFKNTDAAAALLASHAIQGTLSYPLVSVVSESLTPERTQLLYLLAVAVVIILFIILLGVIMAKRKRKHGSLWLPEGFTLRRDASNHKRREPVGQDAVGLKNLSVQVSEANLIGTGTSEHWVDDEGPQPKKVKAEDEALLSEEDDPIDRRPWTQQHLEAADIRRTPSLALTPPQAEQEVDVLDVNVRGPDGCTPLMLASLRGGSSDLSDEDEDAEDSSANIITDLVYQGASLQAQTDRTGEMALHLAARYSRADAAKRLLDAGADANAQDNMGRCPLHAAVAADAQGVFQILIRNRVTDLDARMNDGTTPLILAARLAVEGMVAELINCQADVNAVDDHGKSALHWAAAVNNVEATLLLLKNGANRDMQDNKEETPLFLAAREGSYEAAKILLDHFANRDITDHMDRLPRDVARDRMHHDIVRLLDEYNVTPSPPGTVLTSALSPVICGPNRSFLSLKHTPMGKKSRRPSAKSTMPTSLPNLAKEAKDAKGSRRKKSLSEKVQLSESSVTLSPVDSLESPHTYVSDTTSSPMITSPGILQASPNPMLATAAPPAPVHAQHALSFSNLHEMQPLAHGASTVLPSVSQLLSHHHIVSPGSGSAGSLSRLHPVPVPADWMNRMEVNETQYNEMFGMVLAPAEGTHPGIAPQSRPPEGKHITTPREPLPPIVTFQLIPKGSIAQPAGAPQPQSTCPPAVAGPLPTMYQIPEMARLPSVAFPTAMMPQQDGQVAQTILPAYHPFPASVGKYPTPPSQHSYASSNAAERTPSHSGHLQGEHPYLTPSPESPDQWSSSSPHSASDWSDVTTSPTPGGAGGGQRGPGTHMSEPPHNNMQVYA
One number for each entry.

Please look at the items below and tell me composite z-score for each one, in order.
1. C=CC[C@@]1(C(=O)OC)N=C(c2ccc(OCCCO)cc2)O[C@@H]1c1ccccc1N=[N+]=[N-]
2. CC(C)=CCCC(C)=CC(O)C1C=CC2C(=O)NC(=O)C2N1Nc1ccccn1 (centres undefined)
3. C=CCC(OC(C)=O)[C@@H]1[C@@H](N(Cc2cc3ccccc3o2)C(=O)c2cccc3ccccc23)c2cc(OCCCO)ccc2N1C(=O)c1ccc2ccccc2n1 (some centres undefined)
4. CCCNC(=O)[C@@]1(c2ccc([N+](=O)[O-])cc2)CC(=O)N(C(C)C)[C@@H]1c1ccc(CO)cc1
5. CC(C)NC(=O)[C@@H]1c2ccccc2C(=O)N(Cc2ccccc2C(F)(F)F)[C@H]1c1ccc(CO)cc1
6. COc1ccc([Si](C)(C)[C@@H]2[C@@H](CC(=O)N3Cc4ccccc4C[C@H]3CO)O[C@]3(C(=O)N(Cc4cccc(N5CCOC5=O)c4)c4ccccc43)[C@H]2C)cc1

[1.47, 1.57, 0.16, -1.73, -0.409, 0.331]
